assay procedure: Solubility test in Britton-Robinson buffered solution, HPLC
Assay type: physicochemical
experimental conditions: britton-robinson buffer, aqueous buffer; Britton - Robinson broad buffered solution pH 4, ionic strength 0.125, 25°C
Experimental: Solubility and stability tests were carried out according to the method of R.H. Blythe et al [J. Pharm. Sci., vol. 66, page 785 (1977)]. A Britton - Robinson broad buffered solution (pH 4) was prepared, and adjusted to 0.125 of the ionic strength by adding sodium chloride. […]
measurement name: solubility (µg/mL)

1. Cc1c(C(=O)NCCC(=O)O)sc(=NC(=O)c2ccc(C(=N)N3CCN(c4ccccn4)CC3)cc2)n1C: 4300

* * *

Test system: blood platelet
assay procedure: Human in vitro blood platelet aggregation inhibition test (ADP-induced, PRP)
Assay type: cell-based
experimental conditions: 0.05 h
pIC50: −log10 of the molar value.
measurement name: pIC50

1. Cc1c(C(=O)NCCC(=O)O)sc(=NC(=O)c2ccc(C(=N)N3CCN(c4ccccn4)CC3)cc2)n1C: 7.67
